biological target: T1, hRAGE-Fc (human, UniProt Q15109 23-342, biotin label in the selections and HTRF assays); experiment: IC50 of parental M4 scFv over IC50 of clone, HTRF competition
T1 construct: extracellular domain; also called biotin labeled hRAGE-Fc; Biotin-labeled RAGE-Fc; not shown: Fc part
T1 sequence (Q15109 23-342): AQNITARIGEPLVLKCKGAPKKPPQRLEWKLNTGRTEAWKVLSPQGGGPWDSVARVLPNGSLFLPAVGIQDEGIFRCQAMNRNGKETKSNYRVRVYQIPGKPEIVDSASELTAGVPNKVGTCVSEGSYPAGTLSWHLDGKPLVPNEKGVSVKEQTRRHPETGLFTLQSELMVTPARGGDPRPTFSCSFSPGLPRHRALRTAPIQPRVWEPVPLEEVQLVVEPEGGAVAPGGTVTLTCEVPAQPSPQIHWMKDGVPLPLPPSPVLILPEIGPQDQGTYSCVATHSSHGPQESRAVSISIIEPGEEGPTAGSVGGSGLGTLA
Listed binders paired with reported Fold gain scFv (hRAGE)
property: Fold gain scFv (hRAGE)

binder	result
6G4 scFv (scFv) scFv: DIQMTQSPSSLSASVGDRVTITCRASQDVGIYVNWFQQKPGKAPRRLIYRATNLADGVPSRFSGSRSGTDFTLTISSLQPEDFATYYCLEFDEHPLTFGGGTKVEIKDGGGSGGGGSGGGGSSEVQLVESGGGLVQPGGSLRLSCAASGFTFNNYWMTWVRQAPGKGLEWVASIDNSGDNTYYPDSVKDRFTISRDNAKNSLYLQMNSLRAEDTAVYYCARGGDILDSLHFWGQGTLVTVSS	16.2 fold
S2R3A1_8G9 scFv (scFv) scFv: DIQMTQSPSSLSASVGDRVTITCRASQDVGIYVNWFQQKPGKAPRRLIYRATNLADGVPSRFSGSRSGTDFTLTISSLQPEDFATYYCLEFDEHPLTFGGGTKVEIKDGGGSGGGGSGGGGSSEVQLVESGGGLVQPGSSLRLSCAASGFTFNNYWMTWVRQAPGKGLEWVASIDNSGDNTYYPDSVKDRFTISRDNAKNSLYLQMNSLRAEDTAVYYCARGGDITTGLDYWGQGTLVTVSS	13.8 fold
S2R3A1_5H3 scFv (scFv) scFv: DIQMTQSPSSLSASVGDRVTITCRASQDVGIYVNWFQQKPGKAPRRLIDRATNLADGVPSRFSGSRSGTDFTLTISSLQPEDFATYYCLEFDEHPLTFGGGTKVEIKDGGGSGGGGSGGGGSSEVLLVESGGGLVQPGGSLRLSCAASGFTFNNYWMTWVRQAPGKGLEWVASIDNSGDNTYYPDSVKDRFTISRDNAKNSLYLQMNSLRAEDTAVYYCARGGDITTGFDYWGQGTLVTVSS	4 fold
